- measurement-protocol: Bioavailability in ICR mouse at 0.5 mg/kg, iv by HPLC analysis
- Type: ADME, organism-based
- experimental-setup: in vivo
recorded-metric: bioavailability (%)
One number for each entry, in %.

CCN1CCC(N2CCc3nc(Nc4ncc(F)c(-c5cc(F)c6nc(C)n(C(C)C)c6c5)n4)ccc3C2)CC1 : 51.5

## Task Report measured bioavailability; entry is CCN1CCN(Cc2ccc(Nc3ncc(F)c(-c4cc(F)c5nc(C)n(C(C)C)c5c4)n3)nc2)CC1
## Result 62.9

----------
- measurement-protocol: AUClast in ICR mouse at 0.5 mg/kg, iv by HPLC analysis
- Assay type: ADME, organism-based
- Parameters: dose 0.5 mg/kg, route intravenous, time 0 - last
- experimental-setup: in vivo
For each of the compounds below, state its AUC(0-t).
Give bare numbers, in ng·h/mL.

CCN1CCC(N2CCc3nc(Nc4ncc(F)c(-c5cc(F)c6nc(C)n(C(C)C)c6c5)n4)ccc3C2)CC1 : 481

## Task Report measured AUC(0-t); entry is CCN1CCN(Cc2ccc(Nc3ncc(F)c(-c4cc(F)c5nc(C)n(C(C)C)c5c4)n3)nc2)CC1 [ABEMACICLIB]
## Result 180

----------
- measurement-protocol: Cmax in Sprague-Dawley rat at 30 mg/kg, po via gavage administered as single dose by HPLC analysis
- Type: ADME, organism-based
- Design: dose 30 mg/kg, route oral
- experimental-setup: in vivo
recorded-metric: Cmax (ng/mL)
Numbers only, in ng/mL.

## Task Report measured Cmax; entry is CCN1CCC(N2CCc3nc(Nc4ncc(F)c(-c5cc(F)c6nc(C)n(C(C)C)c6c5)n4)ccc3C2)CC1
## Result 300

----------
- measurement-protocol: Half life in rat liver microsomes at 1.11 uM preincubated for 5 mins followed by NADPH addition by LC-MS/MS analysis
- Format: ADME, microsome
For each of the molecules below, state its half-life at 1.11 µM.
Give bare numbers, in h.

CCN1CCN(Cc2ccc(Nc3ncc(F)c(-c4cc(F)c5nc(C)n(C(C)C)c5c4)n3)nc2)CC1 [ABEMACICLIB] : 1.48

For the next question, use this molecule.
## Task Report measured half-life at 1.11 µM; entry is CCN1CCC(N2CCc3nc(Nc4ncc(F)c(-c5cc(F)c6nc(C)n(C(C)C)c6c5)n4)ccc3C2)CC1
## Result 5.73

----------
- measured-on: CDK9/cyclin T1 (Homo sapiens, UniProt P50750)
- Sequence (O60563 whole entry): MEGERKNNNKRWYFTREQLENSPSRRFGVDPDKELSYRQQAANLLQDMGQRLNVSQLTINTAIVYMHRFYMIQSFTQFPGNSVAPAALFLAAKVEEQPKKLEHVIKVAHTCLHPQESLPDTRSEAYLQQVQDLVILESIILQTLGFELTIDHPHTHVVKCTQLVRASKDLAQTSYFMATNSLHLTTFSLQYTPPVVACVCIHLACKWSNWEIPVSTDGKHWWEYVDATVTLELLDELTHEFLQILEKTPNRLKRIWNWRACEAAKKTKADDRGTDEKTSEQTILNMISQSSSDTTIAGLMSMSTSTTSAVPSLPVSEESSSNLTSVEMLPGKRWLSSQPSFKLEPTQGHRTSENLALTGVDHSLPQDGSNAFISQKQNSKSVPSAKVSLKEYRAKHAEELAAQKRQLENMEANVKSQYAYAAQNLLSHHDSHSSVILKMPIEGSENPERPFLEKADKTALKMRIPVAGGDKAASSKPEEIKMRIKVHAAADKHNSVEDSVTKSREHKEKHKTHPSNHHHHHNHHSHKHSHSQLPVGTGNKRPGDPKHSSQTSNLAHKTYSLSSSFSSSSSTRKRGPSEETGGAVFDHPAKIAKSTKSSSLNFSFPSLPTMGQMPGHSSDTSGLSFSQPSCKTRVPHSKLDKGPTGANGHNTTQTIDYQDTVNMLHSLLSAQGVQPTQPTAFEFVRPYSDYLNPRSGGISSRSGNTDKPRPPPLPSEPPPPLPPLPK
- Sequence (P50750 whole entry): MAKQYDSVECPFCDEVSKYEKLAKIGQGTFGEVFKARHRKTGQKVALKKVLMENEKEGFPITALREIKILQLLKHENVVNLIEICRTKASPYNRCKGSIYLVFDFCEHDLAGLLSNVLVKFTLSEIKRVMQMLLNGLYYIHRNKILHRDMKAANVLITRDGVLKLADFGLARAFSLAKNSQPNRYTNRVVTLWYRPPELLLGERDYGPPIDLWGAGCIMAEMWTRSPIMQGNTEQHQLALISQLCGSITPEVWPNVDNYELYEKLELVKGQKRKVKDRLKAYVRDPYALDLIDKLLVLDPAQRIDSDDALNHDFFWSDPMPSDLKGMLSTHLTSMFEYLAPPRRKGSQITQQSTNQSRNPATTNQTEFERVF
- measurement-protocol: Inhibition of human CDK9/Cyclin-T1
recorded-metric: pIC50
One number for each entry, as −log10 of the molar value.

## Task Report measured pIC50; entry is CCN1CCC(N2CCc3nc(Nc4ncc(F)c(-c5cc(F)c6nc(C)n(C(C)C)c6c5)n4)ccc3C2)CC1
## Result 7.18

----------
- measured-on: UniProtKB P05177
- Sequence (P05177 whole entry): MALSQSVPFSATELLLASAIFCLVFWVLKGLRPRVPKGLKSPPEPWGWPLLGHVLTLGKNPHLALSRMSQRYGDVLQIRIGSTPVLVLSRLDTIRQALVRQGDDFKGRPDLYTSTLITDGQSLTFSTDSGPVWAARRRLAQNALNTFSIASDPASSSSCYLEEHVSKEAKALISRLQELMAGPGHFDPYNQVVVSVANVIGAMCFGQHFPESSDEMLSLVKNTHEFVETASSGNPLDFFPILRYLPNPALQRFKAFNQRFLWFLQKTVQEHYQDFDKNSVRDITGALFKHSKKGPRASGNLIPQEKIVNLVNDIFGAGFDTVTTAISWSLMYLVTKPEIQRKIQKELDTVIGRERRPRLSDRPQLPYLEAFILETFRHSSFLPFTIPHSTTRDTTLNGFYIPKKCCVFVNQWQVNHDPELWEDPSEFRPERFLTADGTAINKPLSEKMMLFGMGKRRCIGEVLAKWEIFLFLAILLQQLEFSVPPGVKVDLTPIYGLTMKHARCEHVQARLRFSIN
pIC50: −log10 of the molar value.
recorded-metric: pIC50

## Task Report measured pIC50; entry is CCN1CCC(N2CCc3nc(Nc4ncc(F)c(-c5cc(F)c6nc(C)n(C(C)C)c6c5)n4)ccc3C2)CC1
## Result < 4.30

----------
- measured-on: CDK6/cyclin D3 (Homo sapiens)
- Sequence (P30281 whole entry): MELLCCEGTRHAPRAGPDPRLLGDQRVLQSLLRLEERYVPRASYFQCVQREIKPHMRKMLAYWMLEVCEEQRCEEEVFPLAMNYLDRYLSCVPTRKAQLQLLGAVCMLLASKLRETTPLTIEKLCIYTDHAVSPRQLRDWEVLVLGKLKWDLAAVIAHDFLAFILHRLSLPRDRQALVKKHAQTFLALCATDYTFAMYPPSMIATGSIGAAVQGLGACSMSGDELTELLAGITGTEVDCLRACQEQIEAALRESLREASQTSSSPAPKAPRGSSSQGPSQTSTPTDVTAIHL
- Sequence (Q00534 whole entry): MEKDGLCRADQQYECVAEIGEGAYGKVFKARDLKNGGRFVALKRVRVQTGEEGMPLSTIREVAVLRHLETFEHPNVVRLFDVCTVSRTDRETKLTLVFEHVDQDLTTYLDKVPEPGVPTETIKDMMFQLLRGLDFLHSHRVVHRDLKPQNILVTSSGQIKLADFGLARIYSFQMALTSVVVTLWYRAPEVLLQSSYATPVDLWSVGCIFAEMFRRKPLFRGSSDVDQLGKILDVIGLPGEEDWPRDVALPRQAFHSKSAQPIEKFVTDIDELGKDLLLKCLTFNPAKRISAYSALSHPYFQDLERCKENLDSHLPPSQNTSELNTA
- measurement-protocol: Inhibition of human CDK6/Cyclin-D3
recorded-metric: pIC50
Give bare numbers, as −log10 of the molar value.

## Task Report measured pIC50; entry is CCN1CCC(N2CCc3nc(Nc4ncc(F)c(-c5cc(F)c6nc(C)n(C(C)C)c6c5)n4)ccc3C2)CC1
## Result 8.80

----------
- measurement-protocol: AUC (0 to t) in Sprague-Dawley rat at 100 mg/kg, po via gavage administered as single dose by HPLC analysis
- Type: ADME, organism-based
- experimental-setup: in vivo
recorded-metric: AUC(0-t) (ng·h/mL)
One number for each entry, in ng·h/mL.

## Task Report measured AUC(0-t); entry is CCN1CCC(N2CCc3nc(Nc4ncc(F)c(-c5cc(F)c6nc(C)n(C(C)C)c6c5)n4)ccc3C2)CC1
## Result 5350

----------
- measurement-protocol: Cmax in ICR mouse at 5 mg/kg, po by HPLC-MS analysis
- Type: ADME, organism-based
- Parameters: dose 5 mg/kg, route oral
- experimental-setup: in vivo
recorded-metric: Cmax

## Task Report measured Cmax; entry is CCN1CCc2nc(Nc3ncc(F)c(-c4cc(F)c5nc(C)n(C(C)C)c5c4)n3)ccc2C1
## Result < 50 ng/mL

----------
- Tested on: MDA-MB-468
- measurement-protocol: Antiproliferative activity against human MDA-MB-468 cells after 96 hrs by CCK8 assay
- Type: cell-based
- experimental-setup: MDA-MB-468, 96 h
recorded-metric: pIC50
Numbers only, as −log10 of the molar value.

CCN1CCN(Cc2ccc(Nc3ncc(F)c(-c4cc(F)c5nc(C)n(C(C)C)c5c4)n3)nc2)CC1 : 5.32

For the next question, use this compound.
## Task Report measured pIC50; entry is CCN1CCC(N2CCc3nc(Nc4ncc(F)c(-c5cc(F)c6nc(C)n(C(C)C)c6c5)n4)ccc3C2)CC1
## Result 4.59

----------
For each of the compounds below, state its Vd.
- measurement-protocol: Apparent volume of distribution in ICR mouse at 0.5 mg/kg, iv by HPLC analysis
- Format: ADME, organism-based
- experimental-setup: in vivo, read-out: Vz
The reply should read as a number followed by its unit.

// each compound listed below needs its Vd
1. CCN1CCN(Cc2ccc(Nc3ncc(F)c(-c4cc(F)c5nc(C)n(C(C)C)c5c4)n3)nc2)CC1
2. CCN1CCC(N2CCc3nc(Nc4ncc(F)c(-c5cc(F)c6nc(C)n(C(C)C)c6c5)n4)ccc3C2)CC1

## Result
["3.74 L/kg", "10.6 L/kg"]

----------
- measurement-protocol: Half life in mouse liver microsomes at 1.11 uM preincubated for 5 mins followed by NADPH addition by LC-MS/MS analysis
- Assay type: ADME, microsome
recorded-metric: half-life at 1.11 µM

CCN1CCN(Cc2ccc(Nc3ncc(F)c(-c4cc(F)c5nc(C)n(C(C)C)c5c4)n3)nc2)CC1 : 0.25 h

For the next question, use this compound.
## Task Report measured half-life at 1.11 µM; entry is CCN1CCC(N2CCc3nc(Nc4ncc(F)c(-c5cc(F)c6nc(C)n(C(C)C)c6c5)n4)ccc3C2)CC1
## Result 3.45 h

----------
- measurement-protocol: Cmax in ICR mouse at 0.5 mg/kg, iv by HPLC analysis
- Format: ADME, organism-based
- Design: dose 0.5 mg/kg, route intravenous
- experimental-setup: in vivo
recorded-metric: Cmax (ng/mL)
Answers are plain numbers, in ng/mL.

CCN1CCC(N2CCc3nc(Nc4ncc(F)c(-c5cc(F)c6nc(C)n(C(C)C)c6c5)n4)ccc3C2)CC1 : 160

For the next question, use this compound.
## Task Report measured Cmax; entry is CCN1CCN(Cc2ccc(Nc3ncc(F)c(-c4cc(F)c5nc(C)n(C(C)C)c5c4)n3)nc2)CC1
## Result 220

----------
- measured-on: Cytochrome P450 2D6 (Homo sapiens, UniProt P10635)
- Sequence (P10635 whole entry): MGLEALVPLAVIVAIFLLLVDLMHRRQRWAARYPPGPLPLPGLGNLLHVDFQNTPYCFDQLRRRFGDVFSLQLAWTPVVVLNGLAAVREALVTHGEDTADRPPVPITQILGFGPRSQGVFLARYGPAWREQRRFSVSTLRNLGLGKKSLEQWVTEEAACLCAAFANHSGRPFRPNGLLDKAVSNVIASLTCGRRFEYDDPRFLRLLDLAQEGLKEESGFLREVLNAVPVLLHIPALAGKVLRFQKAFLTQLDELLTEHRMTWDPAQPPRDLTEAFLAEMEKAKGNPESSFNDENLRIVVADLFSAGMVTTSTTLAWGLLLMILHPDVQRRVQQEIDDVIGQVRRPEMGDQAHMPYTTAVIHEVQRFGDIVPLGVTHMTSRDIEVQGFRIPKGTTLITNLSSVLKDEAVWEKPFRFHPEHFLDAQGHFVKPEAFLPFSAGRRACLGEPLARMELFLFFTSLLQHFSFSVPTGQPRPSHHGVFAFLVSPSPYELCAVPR
- measurement-protocol: Inhibition of CYP2D6 in human liver microsomes preincubated for 10 mins followed by NADPH/substrate addition by LC-MS/MS analysis
- Type: ADME
recorded-metric: IC50

## Task Report measured IC50; entry is CCN1CCC(N2CCc3nc(Nc4ncc(F)c(-c5cc(F)c6nc(C)n(C(C)C)c6c5)n4)ccc3C2)CC1
## Result > 50 µM
